Cited source for all entries: ChEMBL document CHEMBL4513216

- ASSAY METHOD TEXT: Toxicity liver stage against HepG2, at 10uM
- Assay type: cell-based
- Set-up: test concentration 10 uM, cell line HepG2-A16-CD81EGFP
- ASSAY CONTEXT: human, HepG2-A16-CD81EGFP cells; read-out: INHIBITION
READOUT TYPE: cytotoxicity at 10 µM (%)

>>> df
                                    compound           readout_type       val
 0    N#Cc1cnn(-c2ccc(C(=O)Nc3ccccn3)cc2)c1N  cytotoxicity at 10 µM     -9.03
 1  CN(Cc1ccccc1)CC(O)Cn1cnc2c(Cl)cc(Cl)cc2c1=O (configuration not stated)  cytotoxicity at 10 µM     -2.34
 2  CC(NC(=O)c1csnn1)c1ccc(OCC2CC2)c(F)c1 (configuration not stated)  cytotoxicity at 10 µM        -1
 3  Cc1cc2occ(CC(=O)N3CCC4(CCCN(C)C4=O)C3)c2cc1Cl (configuration not stated)  cytotoxicity at 10 µM     -4.03
 4  O=C(C1CCCO1)N1CCCn2c(nnc2Cn2cccn2)C1 (configuration not stated)  cytotoxicity at 10 µM      16.6
 5  Cc1nc(C)c(C(=O)Nc2ccc(-c3nnc(N(C)C)o3)cc2)o1  cytotoxicity at 10 µM      1.87
 6              Cc1ccsc1CN(C)Cc1ncccc1C(=O)O  cytotoxicity at 10 µM     -2.55
 7  Cc1ccc(CN2CCCC3(COCCN(Cc4c[nH]nn4)C3)C2)o1 (configuration not stated)  cytotoxicity at 10 µM     -5.47
 8                   COCCn1ccc(NCc2sccc2C)n1  cytotoxicity at 10 µM       5.6
 9  Cc1cc(N2CCC(Cc3cccnc3)C2)ncn1 (configuration not stated)  cytotoxicity at 10 µM     -2.15
10  Cc1cc(C(=O)N2CCCC(n3cncn3)C2)nn1C (configuration not stated)  cytotoxicity at 10 µM    -0.776
11      CCc1noc(-c2cccc(NC(=O)C(C)(C)C)c2)n1  cytotoxicity at 10 µM     -4.15
12  COc1ccc(CC(=O)N2C[C@@H]3COC[C@]3(CN(C)C)C2)cc1  cytotoxicity at 10 µM     -3.01
13  Cc1cccc(N2CC(c3nnc(N)s3)CC2=O)c1 (configuration not stated)  cytotoxicity at 10 µM      3.79
14  CN(Cc1ccsc1)C(=O)c1ccc(S(=O)(=O)NC(C)(C)C)cc1  cytotoxicity at 10 µM     -8.01
15            COCCc1nnc(NC(=O)CSCc2ccccc2)o1  cytotoxicity at 10 µM     -3.75
16   CCc1cc(C(=O)N2CCC(Nc3ccc(C)nn3)CC2)sc1C  cytotoxicity at 10 µM     -1.03
17       CCn1c(NCc2cccnc2)nc2c(C)nn(C)c2c1=O  cytotoxicity at 10 µM      5.17
18  CC1CN(C(=O)Nc2cccc(CN3CCOC3=O)c2)CCO1 (configuration not stated)  cytotoxicity at 10 µM        -7
19  COc1cc(N2CC[C@H](O)[C@@H]2Cc2cccnc2)ncn1  cytotoxicity at 10 µM     -71.8
20  O=C(c1cccc(Cl)c1)N1CC[C@H]2[C@H]1CCN2CC1CCOCC1  cytotoxicity at 10 µM    -0.696
21  Cc1c(C(=O)N2C[C@@H](CN(C)CCO)[C@@H](CO)C2)sc2ccccc12  cytotoxicity at 10 µM       -11
22  CCN(C(=O)c1ccc2nnc(C3CCN(C)C3)n2c1)C(C)C (configuration not stated)  cytotoxicity at 10 µM      -112
23        O=S(=O)(Nc1ccc2c(c1)OCCO2)N1CCCCC1  cytotoxicity at 10 µM      3.96
24  CCOC(=O)N1CCC(OC)c2ccccc2N(CC(=O)NC)C(=O)C1 (configuration not stated)  cytotoxicity at 10 µM      9.12
25  COc1cccc(CNC(=O)CC2CSc3nc(C)c(C)c(=O)n32)c1 (configuration not stated)  cytotoxicity at 10 µM     -4.31
26  O=C1COC2(COCCN(c3cnccn3)C2)CN1c1cccc(F)c1 (configuration not stated)  cytotoxicity at 10 µM      -104
27    CCc1nnc(CN(C)Cc2nc(-c3ccccc3Cl)oc2C)o1  cytotoxicity at 10 µM     -7.43
28                 CCn1cc(Cl)c(C(=O)NCCCO)n1  cytotoxicity at 10 µM      6.42
29  COCCN1C[C@@H]2CC[C@H]1CN(C(=O)CCc1n[nH]c(C)c1C)C2  cytotoxicity at 10 µM     -8.92
30  Cc1cc(C(=O)N2CCOC(c3nc(C)n[nH]3)C2)[nH]n1 (configuration not stated)  cytotoxicity at 10 µM     -11.7
31  COC(=O)CCC(=O)N1CCc2[nH]nc(-c3ccc(F)c(F)c3)c2C1  cytotoxicity at 10 µM     0.604
32  CCn1ccnc1CN1CCOC(CNc2cccnn2)C1 (configuration not stated)  cytotoxicity at 10 µM     0.762
33  O=C(c1ccnnc1)N1C[C@H](Oc2ccccn2)[C@H]2OCCC[C@H]21  cytotoxicity at 10 µM  -0.00736
34  CC(C)=CCCC(C)CN1CCC(n2cc(C(C)(C)O)nn2)CC1 (configuration not stated)  cytotoxicity at 10 µM     -2.27
35  COc1cccc2c1OCC(NC(=O)NCc1cccs1)C2 (configuration not stated)  cytotoxicity at 10 µM       -11
36  COc1ccc(OC)c(C(O)CN2CCN(C3CCCC3)CC2)c1 (configuration not stated)  cytotoxicity at 10 µM      6.81
37  CC(=O)N1CCC(NC(=O)c2cc(Cl)ccc2-n2cnnn2)CC1  cytotoxicity at 10 µM      8.72
38  COCC1CCN(S(=O)(=O)NCC2COc3ccccc3C2)CC1 (configuration not stated)  cytotoxicity at 10 µM      7.64
39  COc1cccc(-c2nc(C)c(C(=O)N[C@@H](C)C(=O)O)s2)c1  cytotoxicity at 10 µM      6.51
40  O[C@@H]1C[C@H]2CN(Cc3ccccc3Cl)[C@H](Cc3ccccc3)CN2C1  cytotoxicity at 10 µM     -2.51
41         Cc1cccnc1NC(=O)CSc1ccc2c(c1)OCCO2  cytotoxicity at 10 µM     -1.66
